System: Enterococcus faecium
Assay: Antibacterial activity against vancomycin-resistant Enterococcus faecium ATCC 700221 after 16 to 18 hrs by broth microdilution method
Assay type: functional
Endpoint: log10 MIC (log10 of the value in µM)

> print(dat)
                                    compound         target.system   endpoint  assay.result
 1           CCCCOCc1ccc2c(Br)cc(Br)c(O)c2n1  Enterococcus faecium  log10 MIC          1.10
 2  CC(=O)NC[C@H]1CN(c2ccc(N3CCOCC3)c(F)c2)C(=O)O1 [LINEZOLID]  Enterococcus faecium  log10 MIC          0.50
 3      NCCOCCOCCNCc1ccc2c(Br)cc(Br)c(O)c2n1  Enterococcus faecium  log10 MIC          1.70
 4           C#CCNCc1ccc2c(Br)cc(Br)c(O)c2n1  Enterococcus faecium  log10 MIC          0.19
 5       Oc1c(Br)cc(Br)c2ccc(CNc3ccccc3)nc12  Enterococcus faecium  log10 MIC         -0.11
 6        COCCOCCOCc1ccc2c(Br)cc(Br)c(O)c2n1  Enterococcus faecium  log10 MIC          0.50
 7        Oc1c(Br)cc(Br)c2ccc(CN3CCOCC3)nc12  Enterococcus faecium  log10 MIC          0.50
 8            CCCNCc1ccc2c(Br)cc(Br)c(O)c2n1  Enterococcus faecium  log10 MIC          0.50
 9        Oc1c(Br)cc(Br)c2ccc(CN3CCNCC3)nc12  Enterococcus faecium  log10 MIC          1.70
10  C[C@H](NC(=O)OC(C)(C)C)C(=O)N1CCN(Cc2ccc3c(Br)cc(Br)c(O)c3n2)CC1  Enterococcus faecium  log10 MIC          0.80
11              CCCc1ccc2c(Br)cc(Br)c(O)c2n1  Enterococcus faecium  log10 MIC         -0.11
12  CC(C)(C)OC(=O)NCCOCCOCCNCc1ccc2c(Br)cc(Br)c(O)c2n1  Enterococcus faecium  log10 MIC          0.80

Value source: ChEMBL document CHEMBL4152318
